Test system: BT-549 breast
RUN_DESCRIPTION: NCI-60 one-dose screen, 48 h
MEASUREMENT_SETUP: 10 µM unless noted
This is part of a sample that, as a whole, favours compounds with a hit. Of some 83,000 tested, about 20% had one in any assay. The source made the active and inactive calls. The calls were made as follows: active = growth percent below 10; inactive = the rest.
Classes used: active, inactive

molecule=CS(=O)(=O)c1nccc(-c2c(-c3ccc(F)c(OCCc4ccccc4)c3)nc3sccn23)n1 label_class=inactive
molecule=CC1(C)CC[C@]2(C(=O)N3CCCN(CC#N)CC3)CC[C@]3(C)C(=CC[C@@H]4[C@@]5(C)CC[C@H](O)C(C)(C)[C@@H]5CC[C@]43C)[C@H]2C1 label_class=inactive
molecule=CC(=O)NC(C)(C)C(=O)N[C@@H](C)C(=O)NC(C)(C)C(=O)N[C@@H](C)C(=O)NC(C)(C)C(=O)N[C@@H](C)C(=O)N[C@@H](CCC(N)=O)C(=O)NC(C)(C)C(=O)N[C@H](C(=O)NC(C)(C)C(=O)NCC(=O)N[C@@H](CC(C)C)C(=O)NC(C)(C)C(=O)N1CCC[C@H]1C(=O)N[C@H](C(=O)NC(C)(C)C(=O)NC(C)(C)C(=O)N[C@@H](CCC(N)=O)C(=O)N[C@@H](CCC(N)=O)C(=O)N[C@H](CO)CC1CCCCC1)C(C)C)C(C)C label_class=active
molecule="O=S(=O)(NC1CC2CCC1C2)c1ccc2c(c1)C(=NO)c1cc(S(=O)(=O)NC3CC4CCC3C4)ccc1-2 (stereo not given)" label_class=inactive
molecule="C/C(=N\\NC(=O)CSc1nc2sc3c(c2c(=O)n1-c1ccccc1)CCC(C)C3)c1ccc(Cl)cc1 (stereo not given)" label_class=inactive

###

Test system: A549/ATCC NSCLC
RUN_DESCRIPTION: NCI-60 one-dose screen, 48 h (100 = growth as untreated, 0 = no growth, -100 = all killed)
MEASUREMENT_SETUP: 10 µM unless noted
About 83,000 compounds went through this panel and 20% of them were active in at least one assay; those are over-represented in the sample as a whole. Activity calls are given as the source filed them. How the source made its calls: active means growth percent below 10; inactive means the rest.
ASSAY_METRIC: growth

smiles_notation=CC(=O)c1sc(Nc2cccc(Nc3nc(C)c(C)s3)c2)nc1C assay_metric=growth value_observed="65.8% (inactive)"
smiles_notation=Oc1ccccc1-c1nnc(SCc2ccc(O)c3ncccc23)n1-c1ccccc1 assay_metric=growth value_observed="9.34% (active)"
smiles_notation=COc1cc(/C=N/n2cnc3oc(-c4ccccc4)cc3c2=N)cc(CN2CCCC2)c1O assay_metric=growth value_observed="64.7% (inactive)"
smiles_notation=CCc1ccc(NC(=O)N[C@@H](Cc2cc(F)cc(F)c2)C(=O)N[C@@H]2C(=O)N3CCC[C@H]3C(=O)N3CCO[C@H](C)[C@H]3C(=O)N[C@@H](CO)C(=O)N3C[C@H](C)C[C@H]3C(=O)O[C@H]2C)c(F)c1 assay_metric=growth value_observed="26.9% (inactive)"
smiles_notation=Cc1cnc2nc(NN)[nH]n12 assay_metric=growth value_observed="99.2% (inactive)"
smiles_notation=CCOC(=O)c1ccc(N/C=C/C(=O)c2ccccc2)cc1 assay_metric=growth value_observed="101% (inactive)"
smiles_notation=CN1CCN(Cc2ccc(NC(=O)c3cncc(C#Cc4[nH]nc5ncncc45)c3)cc2C(F)(F)F)CC1 assay_metric=growth value_observed="84.3% (inactive)"
smiles_notation=C/C(=N\NC(=S)Nc1ccc(Br)cc1)c1cc2ccccc2oc1=O assay_metric=growth value_observed="27.3% (inactive)"
smiles_notation=Oc1ccc(CSc2nnc(-c3ccc(Cl)cc3)o2)c2cccnc12 assay_metric=growth value_observed="19.6% (inactive)"

Measured values drawn from PubChem BioAssay (NCI) for this set.
